Target Under Test: human δ opioid receptor (human, UniProt P41143 1-372)
Sequence (P41143 whole entry, stated change not applied): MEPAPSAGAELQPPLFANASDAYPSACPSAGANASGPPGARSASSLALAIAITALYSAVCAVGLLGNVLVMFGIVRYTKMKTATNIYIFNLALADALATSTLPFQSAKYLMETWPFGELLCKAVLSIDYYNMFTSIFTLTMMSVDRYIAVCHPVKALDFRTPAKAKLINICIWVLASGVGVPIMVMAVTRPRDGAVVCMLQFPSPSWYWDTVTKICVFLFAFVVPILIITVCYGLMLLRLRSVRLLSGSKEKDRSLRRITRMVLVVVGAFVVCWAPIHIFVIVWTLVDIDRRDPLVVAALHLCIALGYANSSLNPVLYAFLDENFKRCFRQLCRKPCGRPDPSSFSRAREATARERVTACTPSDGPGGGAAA
Assay Overview: cell-based or functional assay
Square brackets hold non-standard residues; d marks the D form. Ends that are not written are not given here. * marks the point of attachment. OBzl(3,5-(CF3)2) = FC(F)(F)c1cc(CO*)cc(C(F)(F)F)c1
# maps each entry to its GTP binding EC50

Binder	GTP binding EC50 / nM
Y[dA]GFMPLW-{OBzl(3,5-(CF3)2)} (also called TY005) [TyrDAlaGlyPheMetProLeuTrpOBn(CF3)2]	2.9
Y[dA]GFGPLW-{OBzl(3,5-(CF3)2)} (also: TFA salt, also called TY006) [TyrDAlaGlyPheGlyProLeuTrpOBn(CF3)2]	50.2
Y[dA]GFLPLW-{OBzl(3,5-(CF3)2)} (also called TY004) [TyrDAlaGlyPheLeuProLeuTrpOBn(CF3)2]	9.6
Y[dA]GFFPLW-{OBzl(3,5-(CF3)2)} (also called TY003) [TyrDAlaGlyPhePheProLeuTrpOBn(CF3)2]	20.8
Y[dA]GF[dF]PLW-{OBzl(3,5-(CF3)2)} (also called TY007) [TyrDAlaGlyPheDPheProLeuTrpOBn(CF3)2]	16.7
YAGFXPLW (D-Ala at 2; Nle at 5 (written X); C-terminal O-3,5-Bzl(CF3)2 ester, also called TY018) [TyrDAlaGlyPheNleProLeuTrpOBn(CF3)2]	4
